# system under test: T1, recombinant human CD73 protein (human, UniProt P21589 27-547)
# T1 construct: Bought soluble protein; The background says that CD73 forms a homodimer; also called soluble CD73; free CD73 protein
# T1 sequence (looked up): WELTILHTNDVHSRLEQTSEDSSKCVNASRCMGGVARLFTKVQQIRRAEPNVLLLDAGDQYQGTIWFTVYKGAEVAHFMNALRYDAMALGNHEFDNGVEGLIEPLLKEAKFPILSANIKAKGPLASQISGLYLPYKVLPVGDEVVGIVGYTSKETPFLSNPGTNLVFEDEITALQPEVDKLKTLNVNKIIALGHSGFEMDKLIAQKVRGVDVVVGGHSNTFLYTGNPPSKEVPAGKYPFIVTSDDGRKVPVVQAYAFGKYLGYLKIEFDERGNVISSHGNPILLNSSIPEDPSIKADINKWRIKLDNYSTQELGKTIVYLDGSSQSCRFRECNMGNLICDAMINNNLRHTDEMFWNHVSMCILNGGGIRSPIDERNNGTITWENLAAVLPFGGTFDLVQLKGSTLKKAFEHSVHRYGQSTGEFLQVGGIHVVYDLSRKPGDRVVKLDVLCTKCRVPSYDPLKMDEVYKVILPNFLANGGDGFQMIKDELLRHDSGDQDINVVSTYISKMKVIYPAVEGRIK
# measurement notes: BLI (Fortebio), human CD73 on HIS1K biosensors, antibody as analyte
property measured: koff (s⁻¹)

| binder | property measured | assay result |
| --- | --- | --- |
| Hab7C3C2.5 (antibody, human IgG1, kappa, L234A L235A, V domains shown, Humanized 7C3C2; also called Hab7C3C.5) VH: QVQLVQSGAEVKKPGASVKVSCKASGYTFTSYDINWVRQATGQGLEWIGWIYPRDGFTKYNEKFKGRVTLTVNTSISTAYMELSSLRSEDTAVYYCARKEGYRGDWYFDVWGQGTTVTVSS VL: DIQMTQSPSSLSASVGDRVTITCRASGNVHNYLAWYQQKPGKAPKLLLYNAKTLASGVPSRFSGSGSGTDYTLTISSLQPEDFATYYCQHFWSTPWTFGGGTELEIKR | koff | 0.00272 |
| Hab1F2F9.15 (antibody, human IgG1, kappa, L234A L235A, V domains shown, Humanized 1F2F9; also called Huab1F2F9.15; HuablF2F9.15) VH: QVQLVQSGAEVKKPGASVKVSCKASGYTFTSYWMHWVRQAPGQRLEWMGNINPSNGGTKYSQKFQGRVTITVDTSASTAYMELSSLRSEDTAVYYCARRDYGSPSYWGQGTTVTVSS VL: DIQMTQSPSSLSASVGDRVTITCKASQDINSYLTWFQQKPGKAPKSLIYRTNILLDGVPSRFSGSGSGTDYTLTISSLQPEDFATYYCLQYHEFPVTFGGGTKLEIKR | koff | 0.0016 |
| Hab1F2F9.12 (antibody, human IgG1, kappa, L234A L235A, V domains shown, Humanized 1F2F9; also called Huab1F2F9.12) VH: QVQLVQSGAEVKKPGASVKVSCKASGYTFTSYWMHWVRQAPGQRLEWMGNINPSNGGTKYNEKFQGRVTITVDTSASTAYMELSSLRSEDTAVYYCARRDYGSPSYWGQGTTVTVSS VL: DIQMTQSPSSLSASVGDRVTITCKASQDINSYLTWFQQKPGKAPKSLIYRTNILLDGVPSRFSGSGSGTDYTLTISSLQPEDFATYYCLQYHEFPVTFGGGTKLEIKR | koff | 0.00133 |
| Hab7C3C2.9 (antibody, human IgG1, kappa, L234A L235A, V domains shown, Humanized 7C3C2; also called Huab7C3C.9) VH: QVQLVQSGAEVKKPGASVKVSCKASGYTFTSYDINWVRQATGQGLEWMGWIYPRDGFTKYAQKFQGRVTITVNTSISTAYMELSSLRSEDTAVYYCARKEGYRGDWYFDVWGQGTTVTVSS VL: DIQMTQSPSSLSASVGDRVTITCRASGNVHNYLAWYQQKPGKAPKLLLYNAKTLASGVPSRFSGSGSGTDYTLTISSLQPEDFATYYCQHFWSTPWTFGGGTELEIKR | koff | 0.00381 |
